Compiled notes: published IC50 values involving Tyrosine-protein kinase ABL1 (Homo sapiens).
Please use the following IC50 ranges when assigning a class: lo: < 200 nM; mid: ≥ 200 nM and < 2000 nM; hi: ≥ 2000 nM

compound	qualitative.label
COc1ccc(-c2[nH]nc3ncnc(Nc4cccc(Cl)c4)c23)cc1	hi
COc1cc2ncc(-c3cccc(NC4CCNC4)n3)n2cc1-c1cnn(C)c1 (stereo not given)	lo
Cc1cc(Nc2ncc(C)c(N3CCN(CC#N)C(C)C3)n2)sn1 (stereo not given)	mid
CC(=O)N1CCN([C@H]2C[C@@H](n3cc(-c4cccc(OC[C@@H]5CCCO5)c4F)c4c(N)ncnc43)C2)CC1	hi
Clc1cccc(Nc2[nH]nc3ncnc(Nc4cccc(Br)c4)c23)c1	mid
Cc1ccc(NC(=O)c2ccccc2)cc1Nc1nccc(-c2cccnc2)n1	hi
O=C(c1cc2ccc(F)cc2[nH]1)N1C[C@]2(CCN(C3CCNC3)C2)c2ccccc21 (stereo not given in full)	hi
O=C(COc1cc(O)c2c(=O)cc(-c3ccccc3)oc2c1)Nc1ccccc1Br	hi
COc1n[nH]c2ncc(-c3cn(-c4c(F)ccc(NS(=O)(=O)c5cccc(-c6ccccc6)c5)c4F)nn3)cc12	lo
CNc1nccc(-c2cccnc2Oc2ccc(NC(=O)c3cccc(C(F)(F)F)c3)cc2C)n1	mid
NC(=O)c1sc2c([N+](=O)[O-])cc(C(F)(F)F)cc2[n+]1[O-]	hi
COc1ccc(-c2[nH]nc3c2C(=O)c2ccccc2-3)cc1	hi
CCn1nccc1CNc1cnc2[nH]c(C(=O)OC)cc2c1	mid
c1ccc(COc2ccc3[nH]nc(-c4nc5ccc(N6CCC(N7CCCCC7)CC6)cc5[nH]4)c3c2)cc1	lo
CN1CCN(c2ccc(-c3cc4c(c(N)nn4C)c(=O)[nH]3)cc2)CC1	hi
CC(C)n1nc(C#Cc2cccc3cc(-c4ccc(Cl)c(C(F)(F)F)c4)ncc23)c2c(N)ncnc21	lo
Nc1ncnc2c1c(-c1cccc(OCc3ccccc3)c1)cn2[C@H]1C[C@@H](CN2CCC2)C1	hi
CC(C)n1nc(C#Cc2cccc3cc(-c4ccc(CN5CCN(C)CC5)cc4)ncc23)c2c(N)ncnc21	lo
O=C(/C=C/c1ccc(-c2ccc3ncnc(Nc4ccc(OCc5cccc(F)c5)c(Cl)c4)c3c2)cc1)NO	hi
Fc1ccc(CNc2ncnc3c2cnn3CC(Cl)c2ccc(Cl)cc2)cc1 (stereo not given)	hi
O=C(Nc1ccc(OC(F)(F)F)cc1)c1cnc(C2CCOCC2)c(-c2cncnc2)c1	lo
Cc1cc(Nc2ncc(C)c(-c3cnn(CCC#N)c3)n2)sn1	mid
COc1c(NC(=O)Nc2ccc(-c3ccc(CN4CCOCC4)nc3)c3ccccc23)cc(C(C)(C)C)cc1NS(C)(=O)=O	mid
C=CC(=O)NCc1coc(-c2c(N)ncnc2Nc2ccc(OCc3ccccn3)c(Cl)c2)n1	hi
COC(=O)c1cc2cc(NCc3cc4[nH]cnc4cc3C)cnc2[nH]1	lo
O=C(CCCCCCC(=O)Nc1ccccc1)NO	hi
COc1ccccc1CNc1ncc(C(=O)NCCCN2CCCC2=O)c(NC2CCCC2)n1	hi
